Listed next: entries and their corresponding Relative Blockade of IL-13 Binding IC50.
Target: T1, hIL-4Rα on cells (human, UniProt P24394 26-825)
T1 sequence: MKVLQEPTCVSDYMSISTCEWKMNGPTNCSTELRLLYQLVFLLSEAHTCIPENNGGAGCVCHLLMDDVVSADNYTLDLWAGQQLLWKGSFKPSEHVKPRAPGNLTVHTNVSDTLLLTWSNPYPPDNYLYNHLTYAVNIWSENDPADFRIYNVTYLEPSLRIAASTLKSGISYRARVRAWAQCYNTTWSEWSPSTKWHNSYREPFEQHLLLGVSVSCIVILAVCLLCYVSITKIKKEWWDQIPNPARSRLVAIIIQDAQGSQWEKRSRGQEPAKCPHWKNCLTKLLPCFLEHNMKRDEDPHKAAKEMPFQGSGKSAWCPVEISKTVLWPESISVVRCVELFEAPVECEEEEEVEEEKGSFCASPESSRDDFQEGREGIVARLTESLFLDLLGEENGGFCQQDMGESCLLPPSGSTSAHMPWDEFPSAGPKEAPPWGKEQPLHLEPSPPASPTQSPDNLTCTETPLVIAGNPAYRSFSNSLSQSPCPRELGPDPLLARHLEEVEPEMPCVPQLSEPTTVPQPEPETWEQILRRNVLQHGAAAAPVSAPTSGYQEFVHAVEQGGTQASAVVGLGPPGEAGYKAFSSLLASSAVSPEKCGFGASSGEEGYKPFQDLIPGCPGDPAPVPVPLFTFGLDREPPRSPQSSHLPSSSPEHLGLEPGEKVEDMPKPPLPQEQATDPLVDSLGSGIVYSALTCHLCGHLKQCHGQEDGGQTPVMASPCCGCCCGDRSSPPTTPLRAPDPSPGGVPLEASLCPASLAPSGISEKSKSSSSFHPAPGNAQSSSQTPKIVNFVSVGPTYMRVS
Experiment: FACS on HEK293 cells, competitor biotin-hIL-13;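 also: stably transduced cells co-expressing both receptor chains, stained cold, with cell-bound signal read as mean fluorescence intensity by flow cytometry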

Below, 3 binders whose answers are already recorded.
binder="Construct 30 (mAb439) (antibody, IgG4, V domains shown, VH/VL only) VH: EVQLVESGGGLEQPGGSLRLSCAGSGFTFRDYAMTWVRQAPGKGLEWVSSISGSGGNTYYADSVKGRFTISRDNSKNTLYLQMNSLRAEDTAVYYCAKDRLSITIRPRYYGLDVWGQGTTVTVSS VL: DIVMTQSPLSLPVTPGEPASISCRSSQSLLYSNRNNYLDWYLQKSGQSPQLLIYSASIRASGVPDRFSGSGSGTDFTLKISRVEAEDVGFYYCMQAFQAPYTFGQGTKLEIK" observed="0.958 relative to dupilumab"
binder="Construct 19 (mAb427) (antibody, IgG4, V domains shown, VH/VL only) VH: EVQLVESGGGLEQPGGSLRLSCAGSGFTFRTYAMTWVRQAPGKGLEWVSSISGSGDNTYYADSVKGRFTISRDNSKNTLYLQMNSLRAEDTAVYYCAKDRVSITIRPRYYGLDVWGQGTTVTVSS VL: DIVMTQSPLSLPVTPGEPASISCTSSQSLLYSIGYNYVDWYLQKSGQSPQLLIYLGNKRASGVPDRFSGSGSGTDFTLKISRVEAEDVGFYYCMQALGSPYTFGQGTKLEIK" observed="1.02 relative to dupilumab"
binder="Construct 27 (mAb435) (antibody, IgG4, V domains shown, VH/VL only) VH: EVQLVESGGGLEQPGGSLRLSCAGSGFTFTDFAMTWVRQAPGKGLEWVSSISGSGGNKYYADSVKGRFTISRDNSKNTLYLQMNSLRAEDTAVYYCAKDRLSVTVRPRYYGLDVWGQGTTVTVSS VL: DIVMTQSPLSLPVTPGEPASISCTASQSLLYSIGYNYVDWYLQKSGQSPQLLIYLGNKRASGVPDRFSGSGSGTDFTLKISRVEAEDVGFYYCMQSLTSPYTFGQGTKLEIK" observed="0.592 relative to dupilumab"

### Prompt May I ask what Relative Blockade of IL-13 Binding IC50 has been recorded for Construct 22 (mAb430) (antibody, IgG4, V domains shown, VH/VL only) VH: EVQLVESGGGLEQPGGSLRLSCAGSGFTFRDFAMTWVRQAPGKGLEWVSSISGSGSSTYYADSVKGRFTISRDNSKNTLYLQMNSLRAEDTAVYYCAKDRLSVTVRPRYYGLDVWGQGTTVTVSS VL: DIVMTQSPLSLPVTPGEPASISCRSSQSVLYSIGYNYVDWYLQKSGQSPQLLIYLGNKRASGVPDRFSGSGSGTDFTLKISRVEAEDVGFYYCMQSLTSPYTFGQGTKLEIK ?
### Response 0.785 relative to dupilumab
